Where these numbers come from: ChEMBL document CHEMBL1139272

System: Protein kinase C beta type (Homo sapiens, UniProt P05771) | Read-out: IC50
Sequence (P05771 whole entry): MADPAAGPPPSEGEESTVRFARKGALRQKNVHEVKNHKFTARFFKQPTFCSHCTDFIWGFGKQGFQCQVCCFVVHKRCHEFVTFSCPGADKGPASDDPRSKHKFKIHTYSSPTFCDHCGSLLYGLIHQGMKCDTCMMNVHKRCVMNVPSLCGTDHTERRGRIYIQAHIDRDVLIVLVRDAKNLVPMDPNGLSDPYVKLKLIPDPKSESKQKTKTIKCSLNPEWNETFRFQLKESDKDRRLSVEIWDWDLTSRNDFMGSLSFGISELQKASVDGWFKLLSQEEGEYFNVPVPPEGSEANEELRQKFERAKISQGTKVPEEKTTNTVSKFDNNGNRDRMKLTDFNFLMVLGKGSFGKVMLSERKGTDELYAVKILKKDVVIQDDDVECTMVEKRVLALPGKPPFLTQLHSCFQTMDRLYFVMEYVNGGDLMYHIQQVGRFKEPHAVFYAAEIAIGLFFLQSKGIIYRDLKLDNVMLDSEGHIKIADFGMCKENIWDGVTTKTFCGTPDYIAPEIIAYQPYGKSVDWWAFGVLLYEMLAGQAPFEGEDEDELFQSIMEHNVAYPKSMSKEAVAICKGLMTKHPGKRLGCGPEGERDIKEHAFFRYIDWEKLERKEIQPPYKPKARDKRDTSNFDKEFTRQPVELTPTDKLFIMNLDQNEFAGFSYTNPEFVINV

// below: answered molecules
O=C(CS(=O)(=O)c1ccc(Cl)cc1)N/N=C/c1cc(C(=O)O)c(Nc2ccc(I)cc2F)c(F)c1F; > 30 µM
NC(=O)C[C@H](N)C(=O)NCc1cc(C(=O)O)c(Nc2ccc(I)cc2F)c(F)c1F; 2 µM

For O=C(N/N=C/c1cc(C(=O)O)c(Nc2ccc(I)cc2F)c(F)c1F)c1ccc(CO)o1 on Protein kinase C beta type (Homo sapiens, UniProt P05771), measured IC50 was > 30 µM

###

As shown below, each of these compounds has a reported IC50 value.
Target: Ephrin type-A receptor 2 (Homo sapiens, UniProt P29317)
Sequence (P29317 whole entry): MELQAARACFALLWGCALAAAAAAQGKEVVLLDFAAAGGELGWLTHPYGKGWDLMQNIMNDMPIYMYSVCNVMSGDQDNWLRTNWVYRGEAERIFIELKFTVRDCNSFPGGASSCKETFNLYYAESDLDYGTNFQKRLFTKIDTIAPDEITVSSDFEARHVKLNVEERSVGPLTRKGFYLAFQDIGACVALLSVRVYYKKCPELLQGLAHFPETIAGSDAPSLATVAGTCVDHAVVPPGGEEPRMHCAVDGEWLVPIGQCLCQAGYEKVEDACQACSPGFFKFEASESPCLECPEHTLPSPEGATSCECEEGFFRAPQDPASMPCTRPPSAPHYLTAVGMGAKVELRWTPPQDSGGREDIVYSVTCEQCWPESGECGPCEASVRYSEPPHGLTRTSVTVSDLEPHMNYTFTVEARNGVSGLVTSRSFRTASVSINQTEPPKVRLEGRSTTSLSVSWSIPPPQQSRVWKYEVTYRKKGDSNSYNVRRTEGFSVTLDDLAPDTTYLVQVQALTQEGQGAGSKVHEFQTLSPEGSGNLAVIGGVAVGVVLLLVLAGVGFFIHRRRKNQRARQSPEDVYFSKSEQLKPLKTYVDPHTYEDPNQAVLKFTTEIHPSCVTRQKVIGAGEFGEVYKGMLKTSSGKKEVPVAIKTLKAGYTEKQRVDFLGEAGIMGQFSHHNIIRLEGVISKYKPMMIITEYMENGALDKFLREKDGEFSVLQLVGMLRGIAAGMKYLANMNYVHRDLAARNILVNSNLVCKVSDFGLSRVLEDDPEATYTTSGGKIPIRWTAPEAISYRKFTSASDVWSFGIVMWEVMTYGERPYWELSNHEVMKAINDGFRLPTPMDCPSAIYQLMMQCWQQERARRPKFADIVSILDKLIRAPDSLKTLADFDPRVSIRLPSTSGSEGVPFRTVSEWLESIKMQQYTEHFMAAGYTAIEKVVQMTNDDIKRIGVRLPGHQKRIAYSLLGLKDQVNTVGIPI
Experiment: Binding affinity to ECK

O=C(N/N=C/c1cc(C(=O)O)c(Nc2ccc(I)cc2F)c(F)c1F)c1ccc(CO)o1; 3 µM

Attention now shifts to the item below.
Lab note: CS(=O)(=O)c1ccc(CNCc2cc(C(=O)O)c(Nc3ccc(I)cc3F)c(F)c2F)cc1 gave IC50 of > 30 µM
